test system: VDR:RXRa (NR concentration 270 nM, RXRa partner concentration 90 nM); experiment: PBM binding z-score (relative to random genomic background probes); higher = stronger binding; sequences stand for … in GC…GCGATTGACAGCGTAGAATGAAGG
propertyLabel: PBM binding z-score

[[record]]
seqstring = "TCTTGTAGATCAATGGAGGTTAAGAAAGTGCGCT"
propertylabel = "PBM binding z-score"
result = 1.38

[[record]]
seqstring = "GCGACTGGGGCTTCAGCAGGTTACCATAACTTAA"
propertylabel = "PBM binding z-score"
result = -0.361

[[record]]
seqstring = "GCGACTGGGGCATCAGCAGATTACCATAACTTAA"
propertylabel = "PBM binding z-score"
result = -0.562

[[record]]
seqstring = "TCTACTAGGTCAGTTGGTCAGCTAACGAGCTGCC"
propertylabel = "PBM binding z-score"
result = 0.701

[[record]]
seqstring = "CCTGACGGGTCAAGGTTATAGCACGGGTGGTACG"
propertylabel = "PBM binding z-score"
result = 2.74

[[record]]
seqstring = "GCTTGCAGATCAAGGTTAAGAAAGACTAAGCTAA"
propertylabel = "PBM binding z-score"
result = -0.0251

